assay target: Neu5Ac(a2-3)Gal(b1-3)GlcNAc(b1-3)GalNAc
test description: glycan array binding signal (z-score within array); higher = stronger binding
experimental conditions: glycan notation: IUPAC condensed, linker removed
The sample as a whole holds a higher share of the strongest signals than the screen did.
Exercise: state measured glycan array binding signal (z-score) for each of the binders provided.

1) 3FTT (Staphylococcus aureus), Q5HCZ5 (protein) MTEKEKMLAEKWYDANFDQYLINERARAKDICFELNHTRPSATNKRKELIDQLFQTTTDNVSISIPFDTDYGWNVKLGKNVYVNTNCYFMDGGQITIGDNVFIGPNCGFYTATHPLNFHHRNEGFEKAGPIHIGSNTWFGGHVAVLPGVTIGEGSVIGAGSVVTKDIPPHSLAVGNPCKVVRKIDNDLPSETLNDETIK: -0.066

# batch size: 2; output glycan array binding signal (z-score) per entry
1. Epa11 (Candida glabrata) (protein) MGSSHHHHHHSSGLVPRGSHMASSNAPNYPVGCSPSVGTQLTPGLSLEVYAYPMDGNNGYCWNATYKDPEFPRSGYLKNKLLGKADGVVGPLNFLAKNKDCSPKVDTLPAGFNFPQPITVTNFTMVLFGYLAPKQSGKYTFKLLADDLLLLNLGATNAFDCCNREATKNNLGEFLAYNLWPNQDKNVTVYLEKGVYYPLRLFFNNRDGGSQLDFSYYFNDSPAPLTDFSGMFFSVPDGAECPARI
2. Pwp5 ND (Candida glabrata) (protein) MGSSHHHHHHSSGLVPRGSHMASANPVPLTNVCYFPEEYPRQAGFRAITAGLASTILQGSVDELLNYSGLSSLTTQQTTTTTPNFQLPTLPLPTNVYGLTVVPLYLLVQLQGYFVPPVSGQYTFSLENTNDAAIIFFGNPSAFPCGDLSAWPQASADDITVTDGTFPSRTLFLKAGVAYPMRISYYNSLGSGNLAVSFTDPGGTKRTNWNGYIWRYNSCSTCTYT

A.
[0.127, 0.055]

Origin of values: the supplement of paper PMC8728848
